assay: SAD study in healthy volunteers: PK in plasma, whole blood, red blood cells; type: in vivo, human; settings: human, red blood cells, po, 1400 mg, HV single oral 1400 mg (Cohort 7); red blood cells (calculated conc.); geometric mean; read-out: AUClast
readoutName: AUC(0-t) (µg·h/mL)

> print(dat)
                                   molecule  readoutname  unitabbreviation  quantitativereadout
1  O=Cc1c(O)cccc1OC[C@@H]1COCCN1C(=O)c1cccnc1CCO [Compound I]     AUC(0-t)           µg·h/mL               455000

----------
experiment: SAD study in healthy volunteers: PK in plasma, whole blood, red blood cells; assay type: in vivo, human; conditions: human, whole blood and plasma, HV, dose range of 50 to 2200 mg; read-out: mean blood to plasma ratio for Cmax
readoutName: blood plasma ratio

> print(dat)
                                   compound    result
1  O=Cc1c(O)cccc1OC[C@@H]1COCCN1C(=O)c1cccnc1CCO [Compound I]  20 to 42

Where these numbers come from: patent US20250041312A1
